# Measured on: Matrix protein 2 (Influenza A virus, UniProt P06821)
# Sequence (P06821 whole entry): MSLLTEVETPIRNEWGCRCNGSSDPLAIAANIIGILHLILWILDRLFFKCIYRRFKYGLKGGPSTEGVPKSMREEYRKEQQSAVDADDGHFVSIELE
# Type: cell-based, Oocyte
As shown below, each of these compounds has a reported pIC50 value.
Just the number, please; pIC50 means minus log10 of the concentration in mol/L.

These solved cases illustrate the format of a correct answer.
Structure notation: NC1CCC2(CCCCC2)CC1
Measured on: Matrix protein 2 (Influenza A virus, UniProt P06821)
Assay endpoint: pIC50
Recorded value: 4.90
//
Structure notation: CC1(C)CCCNCC1
Measured on: Matrix protein 2 (Influenza A virus, UniProt P06821)
Assay endpoint: pIC50
Recorded value: 4.58
//
Structure notation: NC1CCC2(CCCC2)CC1
Measured on: Matrix protein 2 (Influenza A virus, UniProt P06821)
Assay endpoint: pIC50
Recorded value: 5.48
//
Structure notation: CC1(C)CCC(N)CC1
Measured on: Matrix protein 2 (Influenza A virus, UniProt P06821)
Assay endpoint: pIC50
Recorded value: 5.62

Req: May I ask what pIC50 has been recorded for NC1CC[Si]2(CCCCC2)CC1 ?
Resp: 4.86

Req: Field entry: C[Si]1(C)CCC(CN)CC1
Resp: 5.24
